Consider the following compounds and their measured pIC50 readings.
- TESTED ON: Human PD-L1/PD-1 (Homo sapiens, UniProt Q9NZQ7)
- Construct: made in house; host or cells: HEK293T
- Sequence (Q9NZQ7 with tags, fused parts or gaps): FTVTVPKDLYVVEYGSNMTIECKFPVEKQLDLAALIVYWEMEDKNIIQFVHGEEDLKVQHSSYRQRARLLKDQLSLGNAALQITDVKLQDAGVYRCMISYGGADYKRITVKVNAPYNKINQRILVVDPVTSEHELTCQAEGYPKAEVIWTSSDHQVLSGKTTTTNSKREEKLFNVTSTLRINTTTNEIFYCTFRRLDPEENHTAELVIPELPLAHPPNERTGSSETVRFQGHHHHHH
- EXPERIMENT NOTES: HTRF PD-1-Ig/PD-L1-His binding assay (human PD-L1)
- SETUP CONDITIONS: cluster symbol; read-out: HTRF IC50 cluster
pIC50: −log10 of the molar value. Positions of bridges follow the written chain, without caps; N, C: chain ends. Non-standard residues stand in square brackets, D forms with d. Residues, ends and D or L forms follow the SMILES beside them. ξ: configuration not given here. Phe(3-CF3) = N[C@@H](Cc1cccc(C(F)(F)F)c1)C(=O)O; Phe(4-Cl) = N[C@@H](Cc1ccc(Cl)cc1)C(=O)O; Phe(4-F) = N[C@@H](Cc1ccc(F)cc1)C(=O)O; Bta = N[C@@H](Cc1csc2ccccc12)C(=O)O; Hyp = O=C(O)[C@@H]1C[C@@H](O)CN1; NMeF = CN[C@@H](Cc1ccccc1)C(=O)O; NMeNle = CCCC[C@H](NC)C(=O)O; NMeM = CN[C@@H](CCSC)C(=O)O; NMeA = CN[C@@H](C)C(=O)O; Dap = NC[C@H](N)C(=O)O; ξC = NC(CS)C(=O)O; Sar = CNCC(=O)O

COMPOUND: CCCC[C@H]1C(=O)N(C)[C@@H](CCCC)C(=O)N[C@@H](CCCNC(=N)N)C(=O)N[C@H](C(=O)NCC(N)=O)CSCC(=O)N[C@@H](Cc2ccccc2)C(=O)N(C)[C@@H](C)C(=O)N[C@@H](CC(N)=O)C(=O)N2CCC[C@H]2C(=O)N[C@@H](Cc2cnc[nH]2)C(=O)N[C@@H](CC(C)C)C(=O)N(C)CC(=O)N[C@@H](Cc2cccc(C(F)(F)F)c2)C(=O)N[C@@H](CO)C(=O)N[C@@H](Cc2c[nH]c3ccccc23)C(=O)N1C [Example 1018] ({CH2CO}-F[NMeA]NPHL[Sar][Phe(3-CF3)]SW[NMeNle][NMeNle]RCG-NH2; thioether N-14)
pIC50: < 7.52

COMPOUND: CCCC[C@H]1C(=O)N(C)[C@@H](CCCC)C(=O)N[C@@H](CCCCN)C(=O)N[C@H](C(=O)NCC(N)=O)CSCC(=O)N[C@@H](Cc2ccc(O)cc2)C(=O)N(C)[C@@H](C)C(=O)N[C@@H](CC(N)=O)C(=O)N2CCC[C@H]2C(=O)N[C@@H](Cc2cnc[nH]2)C(=O)N[C@@H](CC(C)C)C(=O)N2CCC[C@H]2C(=O)N[C@@H](Cc2c[nH]c3ccccc23)C(=O)N[C@@H](CO)C(=O)N[C@@H](Cc2csc3ccccc23)C(=O)N1C [Example 1041] ({CH2CO}-Y[NMeA]NPHLPWS[Bta][NMeNle][NMeNle]KCG-NH2; thioether N-14)
pIC50: 7.52 to 8.17

COMPOUND: CCCC[C@H]1C(=O)N[C@@H](CCCNC(=N)N)C(=O)NC(C(=O)NCC(N)=O)CSCC(=O)N[C@@H](Cc2ccc(O)cc2)C(=O)N(C)[C@@H](C)C(=O)N[C@@H](CC(N)=O)C(=O)N2CCC[C@H]2C(=O)N[C@@H](CN)C(=O)N[C@@H](CC(C)C)C(=O)N2C[C@H](O)C[C@H]2C(=O)N[C@@H](Cc2c[nH]c3ccccc23)C(=O)N[C@@H](CO)C(=O)N[C@@H](Cc2csc3ccccc23)C(=O)N(C)[C@@H](CCSC)C(=O)N1C (some centres unmarked) [Example 9092] ({CH2CO}-Y[NMeA]NP[Dap]L[Hyp]WS[Bta][NMeM][NMeNle]R[ξC]G-NH2; thioether N-14)
pIC50: 7.52 to 8.17

COMPOUND: CCCC[C@H]1C(=O)N(C)CC(=O)N[C@@H](CC(=O)O)C(=O)N[C@@H](C(C)C)C(=O)N(C)[C@@H](Cc2ccccc2)C(=O)N[C@@H](Cc2ccc(O)cc2)C(=O)N(C)CC(=O)N[C@@H](Cc2c[nH]c3ccccc23)C(=O)N[C@@H](Cc2ccc(O)cc2)C(=O)N[C@@H](Cc2ccc(Cl)cc2)C(=O)N[C@H](C(=O)NCC(N)=O)CSCC(=O)N[C@@H](Cc2ccccc2)C(=O)N(C)[C@@H](Cc2ccccc2)C(=O)N1C [Example 3098] ({CH2CO}-F[NMeF][NMeNle][Sar]DV[NMeF]Y[Sar]WY[Phe(4-Cl)]CG-NH2; thioether N-13)
pIC50: < 7.52

COMPOUND: CCCC[C@H]1C(=O)N(C)[C@@H](COc2cccc(C)c2)C(=O)N[C@@H](CCN)C(=O)N[C@H](C(=O)NCC(N)=O)CSCC(=O)N[C@@H](Cc2ccc(O)cc2)C(=O)N(C)[C@@H](C)C(=O)N[C@@H](CC(=O)O)C(=O)N2CCC[C@H]2C(=O)N[C@@H](CN)C(=O)N[C@@H](CCC(=O)O)C(=O)N2C[C@H](O)C[C@H]2C(=O)N[C@@H](Cc2c[nH]c3ccccc23)C(=O)N[C@@H](CO)C(=O)N[C@@H](Cc2c[nH]c3ccccc23)C(=O)N1C [Example 6031]
pIC50: 8.17 to 9.41

COMPOUND: CCCC[C@H]1C(=O)N(C)CC(=O)N[C@@H](CC(=O)O)C(=O)N[C@@H](C(C)C)C(=O)N(C)[C@@H](Cc2ccccc2)C(=O)N[C@@H](Cc2ccc(F)cc2)C(=O)N(C)CC(=O)N[C@@H](Cc2c[nH]c3ccccc23)C(=O)N[C@@H](Cc2ccc(O)cc2)C(=O)N[C@@H](CC(C)C)C(=O)N[C@H](C(=O)NCC(N)=O)CSCC(=O)N[C@@H](Cc2ccccc2)C(=O)N(C)[C@@H](Cc2ccccc2)C(=O)N1C [Example 3077] ({CH2CO}-F[NMeF][NMeNle][Sar]DV[NMeF][Phe(4-F)][Sar]WYLCG-NH2; thioether N-13)
pIC50: < 7.52

COMPOUND: CCCC[C@H]1C(=O)N(C)[C@@H](CCCC)C(=O)N[C@@H](C)C(=O)N[C@H](C(=O)NCC(N)=O)CSCC(=O)N[C@@H](Cc2ccc(O)cc2)C(=O)N2CCC[C@H]2C(=O)N[C@@H](CC(=O)O)C(=O)N2CCC[C@H]2C(=O)N[C@@H](CN)C(=O)N[C@@H](CC(C)C)C(=O)N2C[C@H](O)C[C@H]2C(=O)N[C@@H](Cc2c[nH]c3ccccc23)C(=O)N[C@@H](CO)C(=O)N[C@@H](Cc2c[nH]c3ccccc23)C(=O)N1C [Example 1152] ({CH2CO}-YPDP[Dap]L[Hyp]WSW[NMeNle][NMeNle]ACG-NH2; thioether N-14)
pIC50: 7.52 to 8.17

COMPOUND: CCCC[C@H]1C(=O)N(C)[C@@H](CCCC)C(=O)N[C@@H]([C@@H](C)CC)C(=O)N[C@H](C(=O)NCC(N)=O)CSCC(=O)N[C@@H](Cc2ccccc2)C(=O)N(C)[C@@H](C)C(=O)N[C@@H](CC(N)=O)C(=O)N2CCC[C@H]2C(=O)N[C@@H](Cc2cnc[nH]2)C(=O)N[C@@H](CC(C)C)C(=O)N(C)CC(=O)N[C@@H](Cc2c[nH]c3ccccc23)C(=O)N[C@@H](CO)C(=O)N[C@@H](Cc2c[nH]c3ccccc23)C(=O)N1C [Example 5018] ({CH2CO}-F[NMeA]NPHL[Sar]WSW[NMeNle][NMeNle]ICG-NH2; thioether N-14)
pIC50: 7.52 to 8.17
